Target: T1, human PRLR construct with an HA tag on HEK293/hPRLR cells (human, UniProt P16471 25-622)
T1 sequence: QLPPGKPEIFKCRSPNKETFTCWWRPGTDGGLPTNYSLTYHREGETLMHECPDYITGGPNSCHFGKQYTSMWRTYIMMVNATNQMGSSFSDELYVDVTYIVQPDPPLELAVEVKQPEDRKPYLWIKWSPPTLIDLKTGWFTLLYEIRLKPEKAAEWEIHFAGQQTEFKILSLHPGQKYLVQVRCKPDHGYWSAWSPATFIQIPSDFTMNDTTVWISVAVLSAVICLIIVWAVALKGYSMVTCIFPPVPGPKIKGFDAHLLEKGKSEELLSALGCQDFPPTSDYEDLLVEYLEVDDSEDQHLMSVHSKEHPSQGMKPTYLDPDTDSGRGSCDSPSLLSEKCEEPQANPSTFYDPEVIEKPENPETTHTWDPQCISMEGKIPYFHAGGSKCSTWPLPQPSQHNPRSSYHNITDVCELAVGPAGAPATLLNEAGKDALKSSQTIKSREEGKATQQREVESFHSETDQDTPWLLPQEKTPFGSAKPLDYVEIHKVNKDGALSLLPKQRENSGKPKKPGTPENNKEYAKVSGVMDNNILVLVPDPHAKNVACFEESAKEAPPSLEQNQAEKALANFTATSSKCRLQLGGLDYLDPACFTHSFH
Assay: FACS on HEK293/hPRLR cells
recorded-metric: FACS Cell Binding (Fold Above Background) (fold)
Answers are plain numbers, in fold.

Here is how some binders turned out for FACS Cell Binding (Fold Above Background).
H1H6804P (antibody, human IgG1, V domains shown, human IgG1 Fc (H1H)) VH: QVTLKESGPVLVKPTQTLSLTCTVSGFSLSDAGMGVSWIRQPPGKALEWLAHIFSNDGKSYSTSLKSRLTISKDTSKRQVVLTMTNMDPVDTATYYCARIRTGTYSLYLDYWGQGTLVTVSS VL: DIQMTQSPSSLSASVGDRVTITCRASQSINSYLNWYQQKPGKAPKLLLYFASSLQSGVPSRFSGSGSGTDFTLTISSLQPEDFASYYCQESYSTPWTFGQGTKVEIK | 1
H1H6795P (antibody, human IgG1, V domains shown, human IgG1 Fc (H1H)) VH: QVQLVQSGAEVKKPGASVKVSCKASGYTFGTSGITWVRQAPGQGLEWMGWSSAYNGKTDYAQKFQDRVTMTTDTSTTTGYMEMRSLTSDDTAVYYCTTVVRRPFDFWGQGTLVTVSS VL: DIQMTQSPSSLSASVGDRVTITCRASQDINNFLAWFQQKPGKAPKSLIYAASSLQSGVPSKFSGGGSGTDFALTISSLQPEDFATYYCQQYSSYPITFGQGTRLEIK | 1
H1H6792P (antibody, human IgG1, V domains shown, human IgG1 Fc (H1H)) VH: EVQLVESGGGLVQPGRSLRLSCAASGFTLDDHAVHWVRQAPGKGLEWVSGISWNSVYIDYADSVKGRFTIFRDNAKNSLYLQMNSLRAEDTAFYYCARDIEGARDYWGQGTLVTVSS VL: DIQMTQSPSSLSASVGDRVTITCRASQGIRNDLGWYQQKPGKAPKRLIYAASSLQSGVPSRFSGSGYGTEFTLTISSLQPEDFAPYYCLQHNSYPLTFGGGTKVEIK | 37

Please report FACS Cell Binding (Fold Above Background) for every entry that follows.
1. H1H6960N (antibody, human IgG1, V domains shown, also called H2M6960N) VH: EVQLVESGGGLVKPGGSLRLSCAASGITFSSYSMNWVRQAPGKGLEWVSSISTRSSLIHYADSVKGRFTISRDNAKNSLYLQMNSLRDEDTAVYYCARWDAAAAFDYWGQGTLVIVSS VL: DIQLTQSPSFLSASVGDRVTITCWASQGISSYLAWYQQKPGKAPKLLIYVASTLQSGVPSRFSGSGSGTEFTLTISSLQPEDFATYFCQQLNSYPLTFGGGTKVEIK
2. H1H6782P (antibody, human IgG1, V domains shown, human IgG1 Fc (H1H)) VH: EVQLVESGGGLVQPGRSLRLSCAASGFTFDDYAMHWVRQAPGKGLEWVSGIIWNSGHIGYGDSVKGRFTISRDNAKKSLYLQMNSLRAEDTALYYCARDSGRYQSYFDYWGQGTLVTVSS VL: DIQMTQSPSTLSASVGDRVTITCRASHIISSWLAWYQQKPGKAPKVLIFKASSLESGVPSRFSGSGSGTEFTLTISSLQPDDFATYYCQQYNTYSRTFGQGTKVEIK
3. H1H6801P (antibody, human IgG1, V domains shown, human IgG1 Fc (H1H)) VH: QVQLQQSGPGLVKPSQTLSLTCVISGDSVSSNTAWNWVRQSPSRGLEWLGRTYYRSKWYNDYAVSVKSRITINPDTSKNQFSLLMNSVTPEDTAVYYCARVVRGLNYFDYWGQGTLVTVSS VL: DIVMTQSPDSLAVSLGERATINCKSSQSVLYNSNNKNYLAWYQQKPGQPPKLLIYWSSSRESGVPDRFSGSGSGTDFTLTISGLQAEDVAIYYCQQYSTIPYTFGQGTKLEIK
4. H1H6975N (antibody, human IgG1, V domains shown, also called H2M6975N) VH: EVHLVESGGGLVQPGGSLRLSCAASGFTFSSYEMNWVRQTPGKGLEWISHISSRSVIIYYADSVKGRFTISRDNAKNSLFLQMNSLRAEDTAVYFCAGITIFGIPEYWGQGTLVTVSS VL: EIVLTQSPATLSLSPGERATLSCRASQSVSSYFAWYQQKPGQAPRLLIYDASSRATGIPTRFSGSGSGTDFTLTISSLEPEDFAVYYCQQRSSWPITFGQGTRLEIK

Reply text:
29
41
47
38

Please look at the items below and tell me FACS Cell Binding (Fold Above Background) for each one, in order.
1. H1H6959N2 (antibody, human IgG1, V domains shown, also called H2M6959N2) VH: EVQLVESGGGLVQPGRSLRLSCAASGFTFDDYAMHWVRQAPGKGLEWVSGISWHSGIIGYADSVKGRFTISRDNAKNSLYLQMNSLRTEDAALYYCAKIGSYFYFDSWGQGTLVTVSS VL: EIVLTQSPGTLSLSPGERATLSCRASQSVSSNYLAWYQQKPGQAPRLLIYGASSRATGIPDRFSGSGSGTDFTLTISRLEPEDFAVYYCQQFGSSGYTFGQGTNLEIK
2. H1H6958N2 (antibody, human IgG1, V domains shown, also called H2M6958N2) VH: QVQLVESGGGVVQPGRSLRLSCGASGFTFRNYGMQWVRQGPGKGLEWVTLISFDGNDKYYADSVKGRFTISRDNSKNTLFLQMNSLRTEDTAVYYCARGGDFDYWGQGTLVTVSS VL: DIQMTQSPSSLSASVGDRVTITCRASQDIRKDLGWYQQKPGKAPKRLIYAASSLHSGVPSRFSGSGSGTEFTLTISSLQPEDFATYYCLQHNSYPMYTFGQGTKLEIK
3. H1H6774P (antibody, human IgG1, V domains shown, human IgG1 Fc (H1H)) VH: EVQLVESGGGLAQPGGSLRLSCVASGFTFSTYWMSWVRQAPGKGLDWVGNIKQDGSEQNYVDSVRGRFTISRDNAKNSLFLQMNSLRAEDTGVYYCATLLTKGDYWGQGTLVTVSS VL: DIQMTQSPSSLSASVGDSVTITCRASQDISNYLDWFQQKPGKAPKSLIYAASILQGGVPSRFSGSGYGTDFTLTISSLQPEDFATYYCRQYKTYPFTFGPGTKVDIK
4. H1H6797P (antibody, human IgG1, V domains shown, human IgG1 Fc (H1H)) VH: EVQLVESGGGLVQPGGSLRLSCIVSGFTFSGSWMSWVRQLPGKGLEWVANIKEDGSDSYYVDSVEGRFTISRDNAKSSLYLQMNSLRVDDTAVYFCARARTVPLHYWGQGTLVTVSS VL: DIQMTQSPSTLSASVGDRVTITCRASQSINIWLAWYQQKPGKAPKLLIYRASYLESGVPSSFAGGGSGTEFTLTISSLQPDDFGTYYCQHYNSYPFTFGQGTKLEIK

Reply text:
1: 6; 2: 35; 3: 1; 4: 1
